Item-by-item account of IC50
# System: Plasmodium falciparum
# assay.summary: Antiplasmodial activity against chloroquine-resistant Plasmodium falciparum Bre1
# Assay type: functional, organism-based
# test.conditions: Plasmodium falciparum, Bre1
observation.type: IC50

* CCC(C)(C)C(=O)O[C@H]1C[C@@H](C)C=C2C=C[C@H](C)[C@H](CC[C@@H]3C[C@@H](O)CC(=O)O3)[C@H]21 [SIMVASTATIN] | > 200 µM
* CC[C@H](C)C(=O)O[C@H]1CCC=C2C=C[C@H](C)[C@H](CC[C@@H](O)C[C@@H](O)CC(=O)O)[C@H]21 | > 200 µM
* CC[C@H](C)C(=O)O[C@H]1CCC=C2C=C[C@H](C)[C@H](CC[C@@H]3C[C@@H](O)CC(=O)O3)[C@H]21 [MEVASTATIN] | > 200 µM
